Target: human TG1 (Homo sapiens)
Sequence (P22735 1-817): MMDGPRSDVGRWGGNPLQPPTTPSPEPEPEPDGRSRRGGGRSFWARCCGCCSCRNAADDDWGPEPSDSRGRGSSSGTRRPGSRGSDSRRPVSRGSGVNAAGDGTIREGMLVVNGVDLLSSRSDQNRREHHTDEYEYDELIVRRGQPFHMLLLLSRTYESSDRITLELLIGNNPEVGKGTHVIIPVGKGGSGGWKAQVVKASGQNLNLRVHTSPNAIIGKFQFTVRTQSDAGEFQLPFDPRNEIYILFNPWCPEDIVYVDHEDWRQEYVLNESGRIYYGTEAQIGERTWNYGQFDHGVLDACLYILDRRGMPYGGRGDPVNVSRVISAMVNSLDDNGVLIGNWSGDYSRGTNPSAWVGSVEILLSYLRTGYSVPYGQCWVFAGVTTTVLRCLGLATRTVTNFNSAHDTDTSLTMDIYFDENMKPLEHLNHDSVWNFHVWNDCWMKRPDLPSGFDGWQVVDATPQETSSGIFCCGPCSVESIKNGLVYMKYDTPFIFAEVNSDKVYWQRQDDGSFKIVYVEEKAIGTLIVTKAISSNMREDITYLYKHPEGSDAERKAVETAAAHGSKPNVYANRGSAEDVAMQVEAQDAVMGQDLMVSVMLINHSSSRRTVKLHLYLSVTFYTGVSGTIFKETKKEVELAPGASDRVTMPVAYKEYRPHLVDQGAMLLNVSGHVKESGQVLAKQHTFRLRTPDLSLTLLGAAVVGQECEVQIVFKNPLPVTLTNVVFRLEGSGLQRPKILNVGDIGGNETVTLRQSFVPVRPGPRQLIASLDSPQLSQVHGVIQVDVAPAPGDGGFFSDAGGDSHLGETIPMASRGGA
Test: Inhibition of recombinant Transglutaminase activity (fluorescent substrate), human TG1
Conditions: human recombinant TG1, Fig 2B; read-out: IC50 to inhibit TG1
Please go through the items and note down their IC50.
Output spec: scalar in nM, unitless text.

Consider the compound shown here: O=C(NCC1CC(Br)=NO1)C1CCCN1C(=O)OCc1cnc2ccccc2c1 (centres unmarked) [ERW1041E] What is its recorded IC50?
440

Consider the compound shown here: C=CC(=O)NC1CCN(S(=O)(=O)c2cccc3c(NC(=O)c4ccc(OC)c(OC)c4)cccc23)CC1 What is its recorded IC50?
160
